SYSTEM: KDR kinase (Homo sapiens)
Sequence (P35968 20-1356): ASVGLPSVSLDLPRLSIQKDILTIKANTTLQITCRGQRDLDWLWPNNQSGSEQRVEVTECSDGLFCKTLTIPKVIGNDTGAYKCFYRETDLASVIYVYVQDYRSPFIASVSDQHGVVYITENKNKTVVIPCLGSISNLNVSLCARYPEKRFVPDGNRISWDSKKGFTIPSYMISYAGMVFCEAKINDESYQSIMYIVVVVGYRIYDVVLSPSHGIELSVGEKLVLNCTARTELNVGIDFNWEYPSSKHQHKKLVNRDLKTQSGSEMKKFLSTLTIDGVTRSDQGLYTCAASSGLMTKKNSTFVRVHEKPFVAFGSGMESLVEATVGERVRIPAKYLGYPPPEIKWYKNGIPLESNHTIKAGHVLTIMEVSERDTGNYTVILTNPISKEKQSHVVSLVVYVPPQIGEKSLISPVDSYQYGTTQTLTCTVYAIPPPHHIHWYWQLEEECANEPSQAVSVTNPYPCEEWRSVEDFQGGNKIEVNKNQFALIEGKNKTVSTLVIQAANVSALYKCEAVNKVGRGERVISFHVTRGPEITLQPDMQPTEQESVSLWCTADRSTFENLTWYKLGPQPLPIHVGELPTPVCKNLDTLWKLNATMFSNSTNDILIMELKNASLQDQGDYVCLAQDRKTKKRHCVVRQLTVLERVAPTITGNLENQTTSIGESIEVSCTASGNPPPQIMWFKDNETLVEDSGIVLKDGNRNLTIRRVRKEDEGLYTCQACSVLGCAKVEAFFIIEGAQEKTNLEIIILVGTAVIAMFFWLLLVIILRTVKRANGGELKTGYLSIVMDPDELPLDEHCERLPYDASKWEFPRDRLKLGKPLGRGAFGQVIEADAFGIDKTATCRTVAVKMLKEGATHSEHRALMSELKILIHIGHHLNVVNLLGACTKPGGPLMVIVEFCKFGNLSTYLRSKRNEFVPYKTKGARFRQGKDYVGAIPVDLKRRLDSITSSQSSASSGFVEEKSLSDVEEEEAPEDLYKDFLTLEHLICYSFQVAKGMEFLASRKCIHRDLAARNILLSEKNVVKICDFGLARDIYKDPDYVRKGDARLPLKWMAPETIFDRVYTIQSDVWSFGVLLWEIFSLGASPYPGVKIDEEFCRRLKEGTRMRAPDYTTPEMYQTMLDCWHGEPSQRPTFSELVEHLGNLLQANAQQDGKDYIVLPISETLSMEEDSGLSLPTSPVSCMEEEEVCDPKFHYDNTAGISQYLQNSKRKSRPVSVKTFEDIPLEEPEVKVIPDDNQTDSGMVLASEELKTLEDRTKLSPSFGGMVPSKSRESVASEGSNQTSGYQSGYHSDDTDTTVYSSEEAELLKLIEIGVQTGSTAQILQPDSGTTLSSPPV
ASSAY_SUMMARY: KDR kinase inhibition assay (LanthaScreen TR-FRET)
Assay type: biochemical
CONDITION: TR-FRET assay
MEASURE_NAME: pIC50
Convention used: pIC50 is expressed as -log10 of the molar concentration.

CC(C)[C@@H]1C[C@H](N)C[C@H](c2ccncc2NC(=O)c2nc(-c3ccccc3)cnc2N)O1 [Example 291] : 6.47
CC(C)(C)[C@H]1O[C@@H](c2ccncc2NC(=O)c2nc(-c3ccccc3)cnc2N)C[C@@H](N)[C@@H]1O [Example 354] : 7.21
Nc1ncc(-c2ccccc2)nc1C(=O)Nc1cnccc1[C@@H]1C[C@H](N)[C@]2(O)CCC[C@@H]2O1 [Example 185] : 5.70

Please turn your attention to the following entry.
The compound identified as C[C@@H]1O[C@H](c2ccncc2NC(=O)c2nc(-c3ccccc3)cnc2N)C[C@H](N)[C@@]1(C)O [Example 229] registered its pIC50 at 6.10
